# measuredTarget: T1, human MSLN-R2-his protein (human, UniProt Q13421 391-486)
# T1 construct: also called human MSLN-R2 protein; hMSLN-R2-his; not shown: His tag
# T1 sequence (Q13421 other isoform, or with tags, fused parts or gaps): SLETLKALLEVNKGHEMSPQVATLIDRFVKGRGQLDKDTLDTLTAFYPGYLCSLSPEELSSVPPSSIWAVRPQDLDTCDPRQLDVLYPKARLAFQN
# assayExplanation: ELISA, coated antigen; antibody 10 nM
measurementName: OD450 (OD450)
Value expressed in OD450; do not type the unit.

Recorded OD450, per entry:
# binder, OD450 / OD450
measured = [
    ("S009-F5-9.16 (antibody, human IgG1, kappa, V domains shown, Human-murine chimeric antibody, human IgG1/kappa constant regions) VH: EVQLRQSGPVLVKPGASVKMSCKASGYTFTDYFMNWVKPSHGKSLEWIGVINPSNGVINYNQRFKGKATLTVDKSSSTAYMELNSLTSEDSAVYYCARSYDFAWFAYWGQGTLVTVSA VL: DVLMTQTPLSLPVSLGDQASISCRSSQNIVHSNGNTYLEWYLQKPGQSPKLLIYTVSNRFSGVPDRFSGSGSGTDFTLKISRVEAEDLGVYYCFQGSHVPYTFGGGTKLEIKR", 0.06),
    ("S009-F4-127.10 (antibody, human IgG1, kappa, V domains shown, Human-murine chimeric antibody, human IgG1/kappa constant regions) VH: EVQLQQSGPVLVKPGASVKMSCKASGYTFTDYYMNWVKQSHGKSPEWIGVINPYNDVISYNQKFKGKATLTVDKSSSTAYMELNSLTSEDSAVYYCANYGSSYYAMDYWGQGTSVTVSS VL: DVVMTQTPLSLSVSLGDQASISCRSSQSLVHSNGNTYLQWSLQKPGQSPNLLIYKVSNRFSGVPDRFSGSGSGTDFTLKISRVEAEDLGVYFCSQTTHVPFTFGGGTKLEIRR", 0.06),
    ("S009-F6-76.1 (antibody, human IgG1, kappa, V domains shown, Human-murine chimeric antibody, human IgG1/kappa constant regions) VH: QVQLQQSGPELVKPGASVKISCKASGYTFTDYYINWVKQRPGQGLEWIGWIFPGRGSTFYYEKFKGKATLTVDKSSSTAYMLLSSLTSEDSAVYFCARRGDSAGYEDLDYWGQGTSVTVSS VL: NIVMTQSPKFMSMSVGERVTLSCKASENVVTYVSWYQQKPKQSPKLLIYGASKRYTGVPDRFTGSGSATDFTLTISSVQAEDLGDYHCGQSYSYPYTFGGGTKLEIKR", 0.2),
]

Please indicate OD450 recorded for S009-F4-94.15 (antibody, human IgG1, kappa, V domains shown, Human-murine chimeric antibody, human IgG1/kappa constant regions) VH: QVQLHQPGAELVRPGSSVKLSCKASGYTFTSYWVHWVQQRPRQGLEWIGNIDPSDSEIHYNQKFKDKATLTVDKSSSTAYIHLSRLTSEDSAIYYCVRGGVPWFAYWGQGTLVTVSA VL: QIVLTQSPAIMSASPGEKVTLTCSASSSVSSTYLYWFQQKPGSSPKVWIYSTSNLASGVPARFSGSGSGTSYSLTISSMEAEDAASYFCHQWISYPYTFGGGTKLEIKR
0.06
